TARGET_OR_TEST_SYSTEM: T1, human neuropeptide Y2 receptor (human, UniProt P49146 1-381)
T1 sequence (looked up): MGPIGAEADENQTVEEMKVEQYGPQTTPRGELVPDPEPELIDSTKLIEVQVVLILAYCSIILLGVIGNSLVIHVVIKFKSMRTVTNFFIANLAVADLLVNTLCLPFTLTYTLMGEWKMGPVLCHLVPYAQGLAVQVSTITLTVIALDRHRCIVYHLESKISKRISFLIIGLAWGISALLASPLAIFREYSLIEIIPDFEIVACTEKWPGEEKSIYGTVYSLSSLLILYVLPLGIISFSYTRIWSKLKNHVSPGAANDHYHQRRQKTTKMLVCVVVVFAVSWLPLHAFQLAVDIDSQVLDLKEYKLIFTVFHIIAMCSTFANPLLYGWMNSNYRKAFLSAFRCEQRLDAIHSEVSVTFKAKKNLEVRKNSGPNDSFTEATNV
RUN_DESCRIPTION: cell-based or functional assay
*1 amine or outer side, *2 acyl side, *3 side chain or, on linkers, in order; H or OH if unused. Where no end group is shown, it is not given here. Side-chain parts run from the residue outwards. [ ]: non-standard residue; d: D form. The star is where a group is joined. C18 diacid = O=C(O)CCCCCCCCCCCCCCCCC(=O)*; γGlu = O=C(O)[C@H](CCC(=O)[*:2])N[*:1]; εLys = N[C@@H](CCCCN[*:1])C(=O)[*:2]; Aib = CC(C)(N)C(=O)O
Some binders, each annotated with its measured EC50, CreLuc reporter, 100% hP.
All answers are understood in nM, so give the number only.

Consider the following illustrative entries.
# BINDER, U, EC50, CreLuc reporter, 100% hP
rows = [
    ("YXEGTFTSDYSIXLEKQAQXAFVRHLINKITRQRY (Aib at 2, 13, 20; Lys29 epsilon-amino acylated with C18DA-gGlu-gGlu-gGlu-gGlu-gGlu; C-terminal amide) [Compound 41]", "nM", 71.3),
    ("YXEGTFTSDYSIXLELQAQXAFVRHLINKXTRQRY (Aib at 2, 13, 20, 30; Lys29 epsilon-amino acylated with C18DA-gGlu-gGlu-gGlu-gGlu-gGlu-gGlu-eLys; C-terminal amide) [Compound 65]", "nM", 406),
    ("Y[Aib]EGTFTSDYSI[Aib]LEKQAQ[Aib]AFVRHLINK([γGlu-γGlu-γGlu-γGlu-γGlu-γGlu-C18 diacid])LTRQRY-NH2 [Compound 12]", "nM", 140),
    ("YXEGTFTSDYSIXLEKQAQXAFVRHLINKITRQRY (Aib at 2, 13, 20; Lys29 epsilon-amino acylated with C18DA-gGlu-gGlu-gGlu-gGlu-gGlu-gGlu-eLys; C-terminal amide) [Compound 66]", "nM", 99.3),
]

Field: next binder
[in] Fill in EC50, CreLuc reporter, 100% hP for record Y[Aib]EGTFTSDYSI[Aib]LDQQAQ[Aib]AFVRHLINK([εLys-γGlu-γGlu-γGlu-γGlu-γGlu-C18 diacid])[Aib]TRQRY-NH2 [Compound 70]
[out] 119
